assay.system: ΔF508-CFTR (Homo sapiens, UniProt P13569, DEL508-508)
Construct: expressed in transfected cells
Sequence (P13569 with tags, fused parts or gaps DEL508-508): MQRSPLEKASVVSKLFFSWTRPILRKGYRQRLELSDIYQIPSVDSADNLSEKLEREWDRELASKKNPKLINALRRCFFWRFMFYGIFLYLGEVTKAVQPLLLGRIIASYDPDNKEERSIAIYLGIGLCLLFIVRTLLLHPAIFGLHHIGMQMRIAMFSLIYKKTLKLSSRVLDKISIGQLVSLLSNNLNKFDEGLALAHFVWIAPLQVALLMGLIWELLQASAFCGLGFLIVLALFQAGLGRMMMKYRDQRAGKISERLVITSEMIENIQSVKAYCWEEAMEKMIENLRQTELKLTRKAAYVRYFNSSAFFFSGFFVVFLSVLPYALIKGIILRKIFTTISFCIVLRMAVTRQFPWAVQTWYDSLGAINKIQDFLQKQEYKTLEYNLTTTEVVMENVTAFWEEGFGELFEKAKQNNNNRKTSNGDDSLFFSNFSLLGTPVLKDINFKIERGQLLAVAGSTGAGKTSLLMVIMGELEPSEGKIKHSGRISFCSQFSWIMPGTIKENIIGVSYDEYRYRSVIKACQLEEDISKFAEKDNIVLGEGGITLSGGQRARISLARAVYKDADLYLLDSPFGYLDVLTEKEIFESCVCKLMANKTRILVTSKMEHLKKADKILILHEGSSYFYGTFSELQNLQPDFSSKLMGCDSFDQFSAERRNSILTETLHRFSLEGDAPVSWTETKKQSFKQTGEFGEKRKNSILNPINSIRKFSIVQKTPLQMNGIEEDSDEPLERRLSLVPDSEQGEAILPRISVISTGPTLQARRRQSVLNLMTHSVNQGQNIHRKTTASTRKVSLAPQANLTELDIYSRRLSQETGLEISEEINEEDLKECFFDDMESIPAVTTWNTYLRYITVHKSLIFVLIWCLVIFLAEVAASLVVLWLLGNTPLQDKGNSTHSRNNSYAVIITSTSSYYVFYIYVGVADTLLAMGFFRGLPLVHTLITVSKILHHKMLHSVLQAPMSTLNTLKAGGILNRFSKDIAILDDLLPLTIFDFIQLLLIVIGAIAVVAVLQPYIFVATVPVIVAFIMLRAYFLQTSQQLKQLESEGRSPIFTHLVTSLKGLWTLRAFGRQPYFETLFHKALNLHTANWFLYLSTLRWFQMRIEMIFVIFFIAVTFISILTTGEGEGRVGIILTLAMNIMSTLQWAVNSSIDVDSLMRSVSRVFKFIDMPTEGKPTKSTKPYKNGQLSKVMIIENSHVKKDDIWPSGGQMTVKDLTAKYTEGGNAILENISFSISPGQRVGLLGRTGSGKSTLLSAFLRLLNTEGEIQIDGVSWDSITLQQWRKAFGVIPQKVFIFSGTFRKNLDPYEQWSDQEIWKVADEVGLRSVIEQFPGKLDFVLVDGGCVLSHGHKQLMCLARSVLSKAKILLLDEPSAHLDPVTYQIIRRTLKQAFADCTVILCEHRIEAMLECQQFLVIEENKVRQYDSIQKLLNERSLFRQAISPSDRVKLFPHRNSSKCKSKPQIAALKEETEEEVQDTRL
experimental.details: Membrane potential optical assay, identification of correction compounds (ΔF508-CFTR correction)
Type: cell-based
condition.info: PercentActivity; NIH3T3 mouse fibroblasts stably expressing ΔF508-CFTR; 16-24 hrs with compound; read-out: Binned Max Efficacy
Quick list: Emax per entry.

Sample records with Emax:
- item.smiles: "COc1ccc(C2(C(=O)Nc3cnc4[nH]c(C(C)(C)C)cc4c3)CC2)cc1"
  Emax: "25 to 100%"
- item.smiles: "CC(C)(C)c1cc2cc(NC(=O)C3(c4ccc5c(c4)OCO5)CC3)cnc2[nH]1"
  Emax: "> 100%"
- item.smiles: "CCc1cc2cc(NC(=O)C3(c4ccc5c(c4)OC(F)(F)O5)CC3)ncc2[nH]1"
  Emax: "> 100%"
- item.smiles: "O=C(Nc1cc2cc(C3CCC3)[nH]c2cn1)C1(c2ccc3c(c2)OC(F)(F)O3)CC1"
  Emax: "> 100%"
- item.smiles: "CC(C)(C)c1cc2cc(NC(=O)C3(c4ccc5c(c4)OC(F)(F)O5)CC3)ncc2[nH]1"
  Emax: "> 100%"
- item.smiles: "CC(C)(C)c1cc2cc(NC(=O)C3(c4ccc5c(c4)OC(F)(F)O5)CC3)cnc2[nH]1"
  Emax: "> 100%"
- item.smiles: "CC(C)(C)c1cc2nc(NC(=O)C3(c4ccc5c(c4)OCO5)CC3)ccc2[nH]1"
  Emax: "25 to 100%"
- item.smiles: "CC(C)(C)c1cc2cc(NC(=O)C3(c4ccc5c(c4)OCO5)CC3)ncc2[nH]1"
  Emax: "25 to 100%"
- item.smiles: "O=C(Nc1ccc2cc[nH]c2n1)C1(c2ccc3c(c2)OCO3)CC1"
  Emax: "> 100%"
- item.smiles: "CC(C)(C)c1cc2nc(NC(=O)C3(c4ccc5c(c4)OC(F)(F)O5)CC3)ccc2[nH]1"
  Emax: "> 100%"

Per the records, this compound ( COc1ccc(C2(C(=O)Nc3ccc4[nH]c(C(C)(C)C)cc4n3)CC2)cc1 ) has Emax equal to 25 to 100%

Per the records, this compound ( COc1cccc(C2(C(=O)Nc3cnc4[nH]c(C(C)(C)C)cc4c3)CC2)c1 ) has Emax equal to 25 to 100%
